Overview of recorded pKi for various binders
Molecular target: T1, human plasma Kallikrein (human, UniProt P03952 20-638, limits assumed)
T1 construct: also called hPK; human PK
T1 sequence (P03952 20-638 limits assumed): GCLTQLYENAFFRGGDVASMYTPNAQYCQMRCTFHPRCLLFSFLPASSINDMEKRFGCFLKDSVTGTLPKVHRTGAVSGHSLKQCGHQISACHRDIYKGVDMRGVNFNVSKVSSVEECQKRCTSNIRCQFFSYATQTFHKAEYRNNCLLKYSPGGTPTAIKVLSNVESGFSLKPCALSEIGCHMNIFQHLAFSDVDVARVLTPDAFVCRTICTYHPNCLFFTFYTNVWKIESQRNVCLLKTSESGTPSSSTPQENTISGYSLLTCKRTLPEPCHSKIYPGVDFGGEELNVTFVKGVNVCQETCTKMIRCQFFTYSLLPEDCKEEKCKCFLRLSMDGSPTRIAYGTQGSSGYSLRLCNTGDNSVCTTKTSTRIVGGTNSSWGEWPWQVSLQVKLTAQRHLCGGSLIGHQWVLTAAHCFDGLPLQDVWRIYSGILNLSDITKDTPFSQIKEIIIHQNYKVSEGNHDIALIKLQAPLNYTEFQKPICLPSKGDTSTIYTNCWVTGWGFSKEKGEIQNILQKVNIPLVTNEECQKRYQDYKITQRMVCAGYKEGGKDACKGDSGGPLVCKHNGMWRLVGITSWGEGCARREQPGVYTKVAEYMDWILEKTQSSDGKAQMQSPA
Test: enzyme inhibition assay
Numbered stars: 1 amine (or outer) side, 2 acyl side, 3 side chain; on linkers, the order of the positions; unused ones are H or OH. Bridge positions count the residues as written; N and C are the ends. Square brackets hold non-standard residues; d marks the D form. TBMB = c1c(C[*:1])cc(C[*:3])cc1C[*:2]; Abu = CC[C@H](N)C(=O)O
Answer as the number alone; pKi is minus log10 of concentration in mol/L.

binder	pKi
Ac-CSWP[Abu]RCLHQDLC-NH2 (linker 1-7-13 via TBMB; SMILES CC[C@@H]1NC(=O)[C@@H]2CCCN2C(=O)[C@H](Cc2c[nH]c3ccccc23)NC(=O)[C@H](CO)NC(=O)[C@@H](NC(C)=O)CSCc2cc3cc(c2)CSC[C@H](NC(=O)[C@H](CCCNC(=N)N)NC1=O)C(=O)N[C@@H](CC(C)C)C(=O)N[C@@H](Cc1c[nH]cn1)C(=O)N[C@@H](CCC(N)=O)C(=O)N[C@@H](CC(=O)O)C(=O)N[C@@H](CC(C)C)C(=O)N[C@H](C(N)=O)CSC3) [Ac-(06-34-18) Aba4]	10.15

## Task Which pKi value belongs to Ac-CSWPARCLHQDLC-NH2 (linker 1-7-13 via TBMB; SMILES CC(=O)N[C@H]1CSCc2cc3cc(c2)CSC[C@H](NC(=O)[C@H](CCCNC(=N)N)NC(=O)[C@H](C)NC(=O)[C@@H]2CCCN2C(=O)[C@H](Cc2c[nH]c4ccccc24)NC(=O)[C@H](CO)NC1=O)C(=O)N[C@@H](CC(C)C)C(=O)N[C@@H](Cc1c[nH]cn1)C(=O)N[C@@H](CCC(N)=O)C(=O)N[C@@H](CC(=O)O)C(=O)N[C@@H](CC(C)C)C(=O)N[C@H](C(N)=O)CSC3, also called Ac-(06-34-18) wildtype; Ac-(06-34-18) WPAR) [Ac-06-34-18(TMB)-NH2] ?
## Result 9.77
